- assay.overview: protein stability index of a GFP-peptide fusion (GPS, HEK-293T) (PSI 1-6); higher = more stable;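 also: 24-mer peptide tiles fused after GFP, lentivirally expressed, FACS-sorted into six equal bins by GFP/DsRed ratio, decoded by Illumina sequencing, PSI is the read-weighted mean bin number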
- assay.context: treatment: DMSO; c terminus: a fixed tail appended
# protein stability index values compiled below
Write the value as a bare number.

{"chain.sequence": "LKDWEHSIALRNISLAKGPPGPKG [SCARA5]", "numeric.result": 3.68}
{"chain.sequence": "LCARLAAGPGAAEPLPVERDPAAG [ZNF511]", "numeric.result": 4.47}
{"chain.sequence": "TANTFRVMFKEPIEILPNVCYTAC [BTBD1]", "numeric.result": 2.46}
{"chain.sequence": "ERIDCQGIPPSSKDKLGVWVYKNK [KLHDC2]", "numeric.result": 3.75}
{"chain.sequence": "RSVIEVPAVPEEILKRLLKEQHLW [DLC1]", "numeric.result": 2.48}

Lookup result for VARTHLTEDTPKVNADIEKVNQNQ [NSDHL] ; measured protein stability index: 5.08

Lookup result for ILFLVIGGMLNFMMHDQRTGPAWN [SOAT2] ; measured protein stability index: 3.27
